Recorded IC50 values for a group of compounds are listed next.
- experimental_target: SARS-CoV-2 M^pro (Severe acute respiratory syndrome coronavirus 2, UniProt P0DTD1)
- procedure_text: FRET-based enzymatic assay, SARS-CoV-2 Mpro
- Type: biochemical
measurement_kind: IC50 (nM)

{"compound": "CC(C)C[C@H](NC(=O)OCc1ccc(NC(=O)CCC(=O)NCCOCCOCCNc2cccc3c2C(=O)N(C2CCC(=O)N(C)C2=O)C3=O)cc1)C(=O)N[C@@H](C[C@@H]1CCNC1=O)C(=O)C(=O)NC1CC1 (stereo partly drawn)", "measurement_kind": "IC50", "observed_value": 110}
{"compound": "CC(C)C[C@H](NC(=O)[C@H](Cc1ccccc1)NC(=O)OCc1ccccc1)C(=O)N[C@@H](C[C@@H]1CCNC1=O)C(=O)C(=O)NC(C)C", "measurement_kind": "IC50", "observed_value": 130}
{"compound": "O=C(N[C@@H](Cc1ccccc1)C(=O)N[C@@H](C[C@@H]1CCNC1=O)C(O)S(=O)(=O)[O][Na+])OCc1ccccc1 (stereo partly drawn)", "measurement_kind": "IC50", "observed_value": 40}
{"compound": "O=C(N[C@@H](Cc1ccccc1)C(=O)N[C@@H](C[C@@H]1CCNC1=O)C(=O)C(=O)NC1CC1)OCc1ccccc1", "measurement_kind": "IC50", "observed_value": 780}
{"compound": "CC(C)C[C@H](NC(=O)[C@H](Cc1ccccc1)NC(=O)OCc1ccccc1)C(=O)N[C@@H](C[C@@H]1CCNC1=O)C(=O)C(=O)NC1CC1", "measurement_kind": "IC50", "observed_value": 13}
{"compound": "CC(C)[C@H](NC(=O)OCc1ccccc1)C(=O)N[C@@H](C[C@@H]1CCNC1=O)C(=O)C(=O)NC1CC1", "measurement_kind": "IC50", "observed_value": 1290}
